# tested-on: Dual specificity tyrosine-phosphorylation-regulated kinase 1B (Homo sapiens)
# test: Inhibition of full length recombinant human GST-tagged Dyrk1B expressed in baculovirus expression system at 0.5 uM using KKISGRLSPIMTEQ-NH2 peptide as substrate in presence of [gamma-32P]-ATP relative to control
# Sequence (Q9Y463 whole entry, looked up): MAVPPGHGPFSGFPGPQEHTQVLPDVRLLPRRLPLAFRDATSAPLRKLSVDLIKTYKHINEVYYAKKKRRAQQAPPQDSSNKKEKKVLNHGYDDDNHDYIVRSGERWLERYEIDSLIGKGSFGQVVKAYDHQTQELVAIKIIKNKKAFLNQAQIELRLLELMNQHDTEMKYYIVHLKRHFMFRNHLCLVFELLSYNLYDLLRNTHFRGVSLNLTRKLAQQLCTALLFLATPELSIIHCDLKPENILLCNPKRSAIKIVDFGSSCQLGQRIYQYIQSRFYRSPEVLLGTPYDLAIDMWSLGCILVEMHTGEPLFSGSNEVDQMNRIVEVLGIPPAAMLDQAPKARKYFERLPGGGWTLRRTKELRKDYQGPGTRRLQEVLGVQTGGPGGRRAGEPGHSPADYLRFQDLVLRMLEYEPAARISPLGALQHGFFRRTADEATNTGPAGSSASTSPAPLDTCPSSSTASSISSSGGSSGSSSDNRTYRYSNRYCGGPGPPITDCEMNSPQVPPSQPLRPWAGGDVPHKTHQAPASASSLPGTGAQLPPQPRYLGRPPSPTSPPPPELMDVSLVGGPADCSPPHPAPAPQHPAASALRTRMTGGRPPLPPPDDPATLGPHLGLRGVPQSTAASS
parameter-measured: inhibition (%)
Please state the figure in %; there is no need to write the unit.

Some compounds with recorded inhibition:
# input Entry under review: COc1ccc2nc(NC(=O)Nc3ccc(C(=O)N4CCN(C)CC4)cc3)sc2c1 . Reported inhibition?
# output 0

# input Another compound: COc1ccc2nc(NC(=O)Nc3ccc(C(=O)NCc4ccccc4)cc3)sc2c1
# output 0

# input Another compound: O=C(Nc1cccc(O)c1)Nc1nc2ccc(O)cc2s1
# output 54.6

---
# input Entry under review: O=C(Nc1ccccc1)Nc1nc2ccc(O)cc2s1 . Reported inhibition?
# output 43.6

# input Another compound: O=C(Cc1cccc(O)c1)Nc1nc2ccc(O)cc2s1
# output 0

# input Another compound: O=C(Nc1nc2ccc(O)cc2s1)Oc1ccccc1
# output 0

# input Another compound: COc1cccc(CC(=O)Nc2nc3ccc(OC)cc3s2)c1
# output 25

# input Another compound: COc1ccc2nc(NC(=O)Nc3ccccc3)sc2c1
# output 0

# input Another compound: COc1ccc2nc(NC(=O)Oc3ccccc3)sc2c1
# output 0

# input Another compound: O=C(Nc1ccc(C(=O)NCc2ccccc2)cc1)Nc1nc2ccc(O)cc2s1
# output 69

# input Another compound: COc1ccc2nc(NC(=O)NCCN3CCOCC3)sc2c1
# output 0

# input Another compound: COc1ccc2nc(NC(=O)NCCCN3CCN(C)CC3)sc2c1
# output 0

# input Another compound: CN1CCN(C(=O)c2ccc(NC(=O)Nc3nc4ccc(O)cc4s3)cc2)CC1
# output 21

# input Another compound: COc1ccc2nc(NC(=O)Nc3ccc(C(=O)O)cc3)sc2c1
# output 0

# input Another compound: O=C(Nc1ccccc1)Nc1nnc(-c2ccncc2)s1
# output 12

---

# tested-on: Dual specificity tyrosine-phosphorylation-regulated kinase 1A (Homo sapiens, UniProt Q13627)
# test: Inhibition of recombinant human N-terminal His6-tagged Dyrk1A catalytic domain expressed in Escherichia coli BL21 (DE3) using KKISGRLSPIMTEQ-NH2 peptide as substrate in presence of [gamma-32P]-ATP
parameter-measured: IC50 (nM)
Please state the figure in nM; there is no need to write the unit.

Some compounds with recorded IC50:
# input Entry under review: O=C(Nc1ccccc1)Nc1nc2ccc(O)cc2s1 . Reported IC50?
# output 163

# input Another compound: CN1CCN(C(=O)c2ccc(NC(=O)Nc3nc4ccc(O)cc4s3)cc2)CC1
# output 95

# input Another compound: O=C(Nc1cccc(O)c1)Nc1nc2ccc(O)cc2s1
# output 134

---
# input Entry under review: O=C(Nc1ccc(C(=O)NCc2ccccc2)cc1)Nc1nc2ccc(O)cc2s1 . Reported IC50?
# output 63

---

# tested-on: Dual specificity protein kinase CLK1 (Homo sapiens, UniProt P49759)
# Sequence (P49759 whole entry): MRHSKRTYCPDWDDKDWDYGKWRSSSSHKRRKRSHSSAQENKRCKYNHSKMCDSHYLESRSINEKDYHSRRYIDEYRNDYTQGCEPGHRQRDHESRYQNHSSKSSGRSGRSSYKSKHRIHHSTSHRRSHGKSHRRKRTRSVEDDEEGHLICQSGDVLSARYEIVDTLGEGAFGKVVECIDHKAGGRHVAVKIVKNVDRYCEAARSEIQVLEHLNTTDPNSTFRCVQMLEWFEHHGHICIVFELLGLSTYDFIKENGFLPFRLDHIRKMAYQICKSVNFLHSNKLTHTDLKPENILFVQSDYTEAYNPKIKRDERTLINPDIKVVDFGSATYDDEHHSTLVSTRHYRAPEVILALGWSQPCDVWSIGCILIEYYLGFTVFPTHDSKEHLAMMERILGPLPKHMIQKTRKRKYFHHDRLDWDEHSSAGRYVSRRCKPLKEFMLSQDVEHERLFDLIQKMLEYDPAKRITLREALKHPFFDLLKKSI
# test: Inhibition of recombinant GST-tagged human CLK1 expressed in Escherichia coli using RSRSRSRSR peptide as substrate in presence of [gamma-32P]-ATP
parameter-measured: pIC50
Please note pIC50 is a logarithmic value: minus log10 of concentration in mol/L. Answer with that number alone.

# input What measured pIC50 is associated with CN1CCN(C(=O)c2ccc(NC(=O)Nc3nc4ccc(O)cc4s3)cc2)CC1 on Dual specificity protein kinase CLK1 (Homo sapiens, UniProt P49759)?
# output 6.14

---

# tested-on: Dual specificity tyrosine-phosphorylation-regulated kinase 1B (Homo sapiens)
# test: Inhibition of full length recombinant human GST-tagged Dyrk1B expressed in baculovirus expression system using KKISGRLSPIMTEQ-NH2 peptide as substrate in presence of [gamma-32P]-ATP
# Sequence (Q9Y463 whole entry): as the sequence (Q9Y463 whole entry, looked up) above
parameter-measured: IC50 (nM)
Please state the figure in nM; there is no need to write the unit.

Some molecules with recorded IC50:
# input Entry under review: O=C(Nc1ccc(C(=O)NCc2ccccc2)cc1)Nc1nc2ccc(O)cc2s1 . Reported IC50?
# output 130

# input Another molecule: O=C(Nc1ccccc1)Nc1nc2ccc(O)cc2s1
# output 710

# input Another molecule: CN1CCN(C(=O)c2ccc(NC(=O)Nc3nc4ccc(O)cc4s3)cc2)CC1
# output 1510

---
# input Entry under review: O=C(Nc1cccc(O)c1)Nc1nc2ccc(O)cc2s1 . Reported IC50?
# output 370

---

# test: Half life in human liver S9 fraction assessed as CYP450-mediated compound degradation at 0.3 uM after 15 to 60 mins by LC-MS/MS analysis
# Type: ADME, subcellular
Listing of recorded half-life at 0.3 µM by entry.
Please state the figure in min; there is no need to write the unit.

# input Entry under review: O=C(Nc1ccc(C(=O)NCc2ccccc2)cc1)Nc1nc2ccc(O)cc2s1 . Reported half-life at 0.3 µM?
# output 33

---
# input Entry under review: C[C@]12CC[C@H]3[C@@H](CCC4=CC(=O)CC[C@@]43C)[C@@H]1CC[C@@H]2O [TESTOSTERONE] . Reported half-life at 0.3 µM?
# output 9.6
